These compounds were tested on Cholinesterase (Mus musculus); IC50 is the recorded read-out.
Sequence (Q03311 whole entry): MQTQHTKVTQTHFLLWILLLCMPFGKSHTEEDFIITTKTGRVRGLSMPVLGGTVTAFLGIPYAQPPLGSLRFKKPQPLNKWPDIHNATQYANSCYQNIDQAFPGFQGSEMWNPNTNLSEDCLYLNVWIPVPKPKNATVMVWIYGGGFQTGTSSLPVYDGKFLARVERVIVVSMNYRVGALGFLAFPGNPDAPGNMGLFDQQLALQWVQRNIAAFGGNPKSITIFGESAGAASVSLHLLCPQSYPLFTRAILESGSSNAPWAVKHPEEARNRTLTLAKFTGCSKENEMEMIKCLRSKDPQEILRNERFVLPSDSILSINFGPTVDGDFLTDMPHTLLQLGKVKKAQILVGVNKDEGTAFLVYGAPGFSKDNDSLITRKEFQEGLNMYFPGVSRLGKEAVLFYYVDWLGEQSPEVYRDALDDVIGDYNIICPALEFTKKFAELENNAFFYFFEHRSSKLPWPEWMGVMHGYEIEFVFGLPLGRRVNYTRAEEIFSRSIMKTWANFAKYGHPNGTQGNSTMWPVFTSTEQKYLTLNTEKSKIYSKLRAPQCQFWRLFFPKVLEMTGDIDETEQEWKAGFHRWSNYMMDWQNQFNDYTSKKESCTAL
readout-name: IC50 (nM)

>>> print(df.to_string())
                            smiles_notation  readout_name  reported_result
0  Cc1ccc2[nH]cc(CCCCN3CCN(c4ccc(C(=O)CCC5CCN(Cc6ccccc6)CC5)cc4)CC3)c2c1          IC50             1200
1  N#Cc1ccc2[nH]cc(CCCN3CCN(c4ccc(C(=O)CCC5CCN(Cc6ccoc6)CC5)cc4)CC3)c2c1          IC50             1340
2  N#Cc1ccc2[nH]cc(CCN3CCN(c4ccc(C(=O)CCC5CCN(Cc6ccsc6)CC5)cc4)CC3)c2c1          IC50             1860
3  CCN1CCC(CCC(=O)c2ccc(N3CCN(CCCCc4c[nH]c5ccc(C#N)cc45)CC3)cc2)CC1          IC50             2380

---

Molecular target: Acetylcholinesterase (Mus musculus, UniProt P21836)
Sequence (P21836 whole entry): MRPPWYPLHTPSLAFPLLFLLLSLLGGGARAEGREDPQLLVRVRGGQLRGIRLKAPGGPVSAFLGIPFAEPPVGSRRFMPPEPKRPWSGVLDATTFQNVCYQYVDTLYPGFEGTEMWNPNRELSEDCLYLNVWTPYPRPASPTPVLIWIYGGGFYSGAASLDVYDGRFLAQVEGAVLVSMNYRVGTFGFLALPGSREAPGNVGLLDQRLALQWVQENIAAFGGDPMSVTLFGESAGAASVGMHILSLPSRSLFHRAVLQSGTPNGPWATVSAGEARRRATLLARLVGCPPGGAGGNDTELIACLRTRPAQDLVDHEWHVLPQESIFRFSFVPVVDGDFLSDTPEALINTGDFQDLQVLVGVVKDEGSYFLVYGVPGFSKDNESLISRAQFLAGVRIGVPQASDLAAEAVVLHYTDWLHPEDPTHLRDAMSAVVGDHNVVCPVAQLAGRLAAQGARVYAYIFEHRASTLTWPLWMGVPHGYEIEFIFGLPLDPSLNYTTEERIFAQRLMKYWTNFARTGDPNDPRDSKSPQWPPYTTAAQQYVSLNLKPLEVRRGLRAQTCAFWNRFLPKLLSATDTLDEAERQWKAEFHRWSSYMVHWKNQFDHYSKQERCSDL
pIC50: −log10 of the molar value.
Decision: pIC50 compared against 8; not below it gives MET, below it gives NOT MET.

>>> df
                                   compound    group
0  N#Cc1ccc2[nH]cc(CCCN3CCN(c4ccc5c(c4)CC(CC4CCN(Cc6ccccc6)CC4)C5=O)CC3)c2c1 (centres undefined)      MET
1  N#Cc1ccc2[nH]cc(CCCCN3CCN(c4ccccc4C(=O)CCC4CCN(Cc5ccccc5)CC4)CC3)c2c1  NOT MET
2  N#Cc1ccc2[nH]cc(CN3CCN(c4ccc(C(=O)CCC5CCN(Cc6cc[nH]c6)CC5)cc4)CC3)c2c1      MET

---

These compounds were tested on Acetylcholinesterase (Mus musculus, UniProt P21836); IC50 is the recorded read-out.
readout-name: IC50 (nM)

>>> df
                                   compound  readout_name  unit_descriptor  reported_result
0  N#Cc1ccc2[nH]cc(CCCCN3CCN(c4ccc(C(=O)CCC5CCN(Cc6ccoc6)CC5)cc4)CC3)c2c1          IC50               nM             8.95
1  N#Cc1ccc2[nH]cc(CCCCN3CCN(c4ccc5c(c4)CC(CC4CCN(Cc6ccccc6)CC4)C5=O)CC3)c2c1 (stereo unspecified)          IC50               nM             5.84
2  O=C(CCC1CCN(Cc2ccccc2)CC1)c1ccc(N2CCN(CCCCc3c[nH]c4cc(Cl)c(Cl)cc34)CC2)cc1          IC50               nM             11.2
3  N#Cc1ccc2[nH]cc(CCN3CCN(c4ccc(C(=O)CCC5CCN(Cc6ccoc6)CC5)cc4)CC3)c2c1          IC50               nM             12.3
4  N#Cc1ccc2[nH]cc(CCN3CCN(c4ccc5c(c4)CC(CC4CCN(Cc6ccccc6)CC4)C5=O)CC3)c2c1 (stereo unspecified)          IC50               nM              8.7
5  N#Cc1ccc2[nH]cc(CN3CCN(c4ccc(C(=O)CCC5CCN(Cc6ccoc6)CC5)cc4)CC3)c2c1          IC50               nM             10.6
